# credit: ChEMBL document CHEMBL1649147

System: Staphylococcus epidermidis
Assay: Antibacterial activity against methicillin-resistant coagulase-negative Staphylococcus epidermidis 074 by broth macrodilution method
Type: functional
Catalogue of compounds with associated MIC
assay metric: MIC (µg/mL)

| compound | reading |
| --- | --- |
| CCC[C@@H]1C[C@@H](C(=O)N[C@@H]([C@H]2O[C@H](SC)[C@H](O)[C@@H](O)[C@H]2O)[C@H](C)Cl)N(C)C1 | 0.25 |
| CO[C@H]1/C=C/O[C@@]2(C)Oc3c(C)c(O)c4c(O)c(c(/C=N/N5CCN(C)CC5)c(O)c4c3C2=O)NC(=O)/C(C)=C\C=C\[C@H](C)[C@H](O)[C@@H](C)[C@@H](O)[C@@H](C)[C@H](OC(C)=O)[C@@H]1C | 0.03 |
| CC(=O)NC[C@H]1CN(c2ccc(N3CCOCC3)c(F)c2)C(=O)O1 | 1 |
| CN(C)c1ccc(O)c2c1C[C@H]1C[C@H]3[C@H](N(C)C)C(O)=C(C(N)=O)C(=O)[C@@]3(O)C(O)=C1C2=O | 0.25 |
| COc1cc(Cc2cnc(N)nc2N)cc(/C=C/C(=O)N2N=Cc3ccccc3C2c2cnc(N(C)C)nc2)c1OC (stereo not drawn) | 0.06 |
| COc1ncc(C2c3ccccc3C=NN2C(=O)/C=C/c2cc(Cc3cnc(N)nc3N)cc(OC)c2OC)cn1 (stereo not drawn) | 0.06 |
| COc1cc(Cc2cnc(N)nc2N)cc(/C=C/C(=O)N2N=Cc3ccccc3C2c2cnc(N3CCOCC3)nc2)c1OC (stereo not drawn) | 0.25 |
| COc1cc(Cc2cnc(N)nc2N)cc(OC)c1OC | 4 |
